Molecular target: glutathione-S-transferase (GST) tagged LXRbeta LBD (ligand binding domain) (Homo sapiens)
Construct: purchased Invitrogen pv4658.pps
Sequence (P55055 222-460 limits assumed): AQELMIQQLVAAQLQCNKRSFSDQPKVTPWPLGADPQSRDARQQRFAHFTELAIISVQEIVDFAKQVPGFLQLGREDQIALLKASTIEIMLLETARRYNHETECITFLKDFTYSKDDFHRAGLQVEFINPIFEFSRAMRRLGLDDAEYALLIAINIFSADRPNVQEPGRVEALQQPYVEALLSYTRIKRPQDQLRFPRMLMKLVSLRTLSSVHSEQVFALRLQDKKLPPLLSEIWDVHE
Assay: LanthaScreen TR-FRET Liver X Receptor Coactivator Assay, co-activator recruitment to LXRbeta LBD
Type: biochemical
Details: efficacy at max dose, in relation to reference dual agonist T0901317; read-out: LXR beta Activity @ max dose (%)
Label Fulfilled when Emax is strictly below 80%; otherwise label Not fulfilled.

Q: State whether 80% exceeds Emax recorded for CN(C)C(=O)c1ccc(N2CCC(CC3CCN(C(=O)C(O)(c4ccsc4)C(F)(F)F)CC3)CC2)cc1Cl (stereo not shown) .
Result: Fulfilled

Q: Emax strictly < 80% for this molecule? COc1cccc([C@@](O)(C(=O)N2CCC(CC3CCN(c4ccc(C(=O)N(C)C)c(Cl)c4)CC3)C2)C(F)(F)F)c1 (stereo partly shown)
Result: Fulfilled

Q: Hi there! Is Emax for `NC(=O)c1ccc(N2CCC(CC3CCN(C(=O)[C@](O)(c4cc(Cl)cc(Cl)c4)C(F)(F)F)CC3)CC2)cc1Cl` below 80%, do you know?
Result: Fulfilled

Q: For `Cc1cc(N2CCC(CC3CCN(C(=O)[C@](O)(c4ccccc4)C(F)(F)F)CC3)CC2)ncc1C(=O)N(C)C` , is the recorded Emax below the cut-off of 80%?
Result: Fulfilled

Q: Confirm or reject: Emax of `COc1cccc([C@@](O)(C(=O)N2CCC(C)(CC3CCN(c4ccc(C(=O)N(C)C)c(C)c4)CC3)CC2)C(F)(F)F)c1` lies strictly below 80%
Result: Fulfilled

Q: Below 80% on Emax? Entry `CCOc1cccc([C@@](O)(C(=O)N2CCC(SC3CCN(c4ccc(C(=O)NC)c(Cl)n4)CC3)CC2)C(F)(F)F)c1`
Result: Not fulfilled

Q: Problem: For the molecule `COc1cccc([C@@](O)(C(=O)N2CCC(CC3CCN(c4ccc(C(=O)N(C)C)c(C)c4)CC3)CC2)C(F)(F)F)c1` , is Emax under 80%?
Result: Fulfilled

Q: Is the reported Emax for CC(C)C(O)(C(=O)N1CCC(CC2CCN(c3ccc(C(=O)N(C)C)c(Cl)c3)CC2)CC1)c1ccccc1 (stereo not shown) strictly below 80%?
Result: Fulfilled

Q: Confirm or reject: Emax of `CN(C)C(=O)c1ccc(N2CCC(CC3CCN(C(=O)[C@](O)(c4ccccc4)C(F)(F)C(F)(F)F)CC3)CC2)cc1` lies strictly below 80%
Result: Not fulfilled

Q: Given the entry `CN(C)C(=O)c1ccc(N2CCC(CC3CCN(C(=O)[C@](O)(c4ccccc4F)C(F)(F)F)CC3)CC2)nc1Cl` , would its reported Emax be below 80%?
Result: Not fulfilled

Q: Does the reported Emax of `CN(C)C(=O)c1ccc(N2CCC(CC3CCN(C(=O)[C@](O)(c4cccc(Br)c4)C(F)(F)F)CC3)CC2)cc1Cl` stay below 80%?
Result: Fulfilled

Q: Given `COc1cccc([C@@](O)(C(=O)N2CCC(CC3CCN(c4ccc(C(=O)N(C)C)cc4)CC3)CC2)C(F)F)c1` , is recorded Emax strictly lower than 80%?
Result: Fulfilled

---

biological target: glutathione-S-transferase (GST) tagged LXRbeta LBD (ligand binding domain) (Homo sapiens); construct: purchased Invitrogen pv4658.pps; assay: LanthaScreen TR-FRET Liver X Receptor Coactivator Assay, co-activator recruitment to LXRbeta LBD; assay type: biochemical; conditions: potency (Inflection Point, IP), co-activator recruitment to LXRbeta LBD, in relation to T0901317; read-out: LXR beta IP
Task for the reader: assign each of the following molecules its reported EC50.
Just the number plus its unit, please.

Q: Given the molecule `CNC(=O)c1ccc(N2CCC(CC3CCN(C(=O)[C@](O)(c4cccc(Cl)c4)C(F)(F)F)CC3)CC2)nc1Cl` , write its reported EC50.
Result: 4 nM

Q: Please report the measured EC50 for `CN(C)C(=O)c1ccc(N2CCC(CC3CCN(C(=O)[C@](O)(c4cccc(OC(F)(F)F)c4)C(F)(F)F)CC3)CC2)nc1Cl`
Result: 10 nM

Q: Respond only with EC50 recorded for `COc1cccc([C@@](O)(C(=O)N2CCC(CC3CCN(c4ccc(C(=O)N(C)C)c(OC)n4)CC3)CC2)C(F)(F)F)c1`
Result: 7 nM

---

Assign Emax to each entry below.
Biological target: glutathione-S-transferase (GST) tagged LXRalpha LBD (ligand binding domain) (Homo sapiens, UniProt Q13133)
Construct: purchased Invitrogen pv4655
Sequence (Q13133 209-447 limits assumed): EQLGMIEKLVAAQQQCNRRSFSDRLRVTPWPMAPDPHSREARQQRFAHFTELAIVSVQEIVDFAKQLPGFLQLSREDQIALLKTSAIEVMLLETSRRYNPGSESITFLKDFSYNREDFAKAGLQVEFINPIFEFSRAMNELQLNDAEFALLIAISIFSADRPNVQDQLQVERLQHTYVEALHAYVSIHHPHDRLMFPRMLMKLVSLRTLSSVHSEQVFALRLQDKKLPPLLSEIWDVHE
Experiment: LanthaScreen TR-FRET Liver X Receptor Coactivator Assay, co-activator recruitment to LXRalpha LBD
Assay type: biochemical
Conditions: efficacy at max dose, in relation to reference dual agonist T0901317; read-out: LXR alpha Activity @ max dose (%)

Q: # return recorded Emax for entry CN(C)C(=O)c1ncc(N2CCC(CC3CCN(C(=O)C(O)(c4cccc(F)c4)C(F)(F)F)CC3)CC2)cc1Cl (centres unmarked)
Result: 30%

Q: Query Emax for `CN(C)C(=O)c1ccc(N2CCC(OC3CCN(C(=O)C4(C(F)(F)F)CCCCC4)CC3)CC2)cc1Cl`
Result: 23%

Q: Read off the recorded Emax for `CCc1cccc([C@@](O)(C(=O)N2CCC(CC3CCN(c4ccc(C(=O)NC)c(Cl)n4)CC3)CC2)C(F)(F)F)c1`
Result: 24%

Q: Please supply the value of reported Emax for the item `CNC(=O)c1ccc(N2CCC(CC3CCN(C(=O)[C@](O)(c4cccc(Cl)c4)C(F)(F)F)CC3)CC2)nc1Cl`
Result: 63%

Q: Fill in reported Emax for this entry: `O=C(NCCn1cncn1)c1ccc(N2CCC(CC3CCN(C(=O)[C@](O)(c4cc(Cl)cc(Cl)c4)C(F)(F)F)CC3)CC2)cc1Cl`
Result: 7%

Q: Return Emax (reported value) for this molecule: CN(C)C(=O)c1ccc(N2CCC(CC3CN(C(=O)C(N)(c4ccccc4)C(F)(F)F)C3)CC2)cc1Cl (centres unmarked)
Result: 16%

Q: Give Emax for the following molecule: CN(C)C(=O)c1ccc(N2CCC(CC3CCN(C(=O)C(N)(c4cccc(Cl)c4)C(F)(F)F)CC3)CC2)cc1Cl (centres unmarked)
Result: 18%

Q: Check the records and state Emax for `CN(C)C(=O)c1ccc(N2CCC(CC3CCN(C(=O)[C@](O)(c4cccc(Cl)c4)C(F)(F)F)CC3)CC2)cc1`
Result: 10%

Q: Give the measured Emax for COc1cc(F)cc(C(O)(C(=O)N2CCC(CC3CCN(c4ccc(C(=O)N(C)C)c(Cl)n4)CC3)CC2)C(F)(F)F)c1 (centres unmarked)
Result: 19%

Q: Dear colleague, please send me the reported Emax for COc1cccc([C@@](O)(C(=O)N2CCC(CC3CCN(c4ccc(C(=O)N(C)C)c(Cl)c4)CC3)CC2)C(F)(F)F)c1 [Example 2-35] when you can.
Result: 6%

Q: Specify measured Emax for `CCc1cccc([C@@](O)(C(=O)N2CCC(C)(CC3CCN(c4ccc(C(=O)N(C)C)c(C)c4)CC3)CC2)C(F)(F)F)c1` .
Result: 1%

Q: Tell me measured Emax for `COc1cccc([C@@](O)(C(=O)N2CCC(CC3CCN(c4ccc(C(=O)N(C)C)c(Cl)n4)CC3)CC2)C(F)(F)C(F)(F)F)c1` please.
Result: 22%

Q: Entry `COc1cc(Cl)cc([C@@](O)(C(=O)N2CCC(C)(CC3CCN(c4ccc(C(=O)N(C)C)c(Cl)c4)CC3)CC2)C(F)(F)F)c1` needs its Emax filled in; supply it.
Result: 0%

Q: Note down Emax recorded for CN(C)C(=O)c1ccc(N2CCC(CC3CCN(C(=O)C(O)(c4ccnc(C(F)(F)F)c4)C(F)(F)F)CC3)CC2)cc1Cl (centres unmarked)
Result: 9%

Q: Retrieve Emax measured for CNC(=O)c1ccc(N2CCC(CC3CCN(C(=O)C(O)(c4cccc(C#N)c4)C(F)(F)F)CC3)CC2)nc1Cl (centres unmarked) and print it.
Result: 61%

Q: Return value of Emax for input `COc1cccc([C@@](O)(C(=O)N2CCC(CC3CCN(c4cnc(C(=O)N(C)C)c(Cl)c4)CC3)CC2)C(F)(F)F)c1` , no commentary.
Result: 6%

Q: // Input: `CCOc1cccc([C@@](O)(C(=O)N2CCC(SC3CCN(c4ccc(C(=O)NC)c(Cl)n4)CC3)CC2)C(F)(F)F)c1` . Output its Emax only.
Result: 10%

Q: Tell me its Emax given COc1cccc(C(O)(C(=O)N2CCC(CCC3CCN(c4ccc(C(=O)N(C)C)c(Cl)c4)CC3)CC2)C(F)(F)F)c1 (centres unmarked) as the entry.
Result: 0%

Q: Given CNC(=O)c1ccc(N2CCC(CC3CCN(C(=O)C(O)(C(C)C)C(F)(F)F)CC3)CC2)nc1Cl (centres unmarked) , respond with its Emax.
Result: 58%

Q: Using the record for `CCOc1cccc([C@@](O)(C(=O)N2CCC(C)(CC3CCN(c4ccc(C(=O)N(C)C)c(C)c4)CC3)CC2)C(F)(F)F)c1` , state its measured Emax.
Result: 0%

Q: For the molecule `O=C(c1ccc(N2CCC(CC3CCN(C(=O)[C@](O)(c4ccccc4)C(F)(F)F)CC3)CC2)cc1Cl)N1CC[C@H](F)C1` , give its measured Emax value.
Result: 39%

Q: Complete the entry with Emax for `Cc1cc(N2CCC(CC3CCN(C(=O)[C@](O)(c4cccc(C(F)(F)F)c4)C(F)(F)F)CC3)CC2)ccc1C(=O)N(C)C`
Result: 22%

Q: Give recorded Emax. CC(C)Oc1cccc(C(O)(C(=O)N2CCC(CC3CCN(c4ccc(C(=O)N(C)C)c(Cl)n4)CC3)CC2)C(F)(F)F)c1 (centres unmarked)
Result: 10%

Q: Provide only the value of recorded Emax for CNC(=O)c1ccc(N2CCC(OC3CCN(C(=O)C(O)(c4cccc(Cl)c4)C(F)(F)F)CC3)CC2)cc1Cl (centres unmarked)
Result: 40%

Q: Find the measured Emax of `CCOc1cccc([C@@](O)(C(=O)N2CC(CC3CCN(c4ccc(C(=O)N(C)C)c(Cl)c4)CC3)C2)C(F)(F)F)c1` and report it.
Result: 0%

Q: Provide only the value of recorded Emax for `COc1cccc([C@@](N)(C(=O)N2CCC(CC3CCN(c4ccc(C(=O)N(C)C)c(Cl)c4)CC3)CC2)C(F)(F)F)c1`
Result: 0%

Data credit: patent US10752587B2
